- subject_of_test: T1, BoNT/F1 (proteolytic BoNT/F) (Clostridium botulinum, UniProt A7GBG3 1-1278)
- T1 sequence: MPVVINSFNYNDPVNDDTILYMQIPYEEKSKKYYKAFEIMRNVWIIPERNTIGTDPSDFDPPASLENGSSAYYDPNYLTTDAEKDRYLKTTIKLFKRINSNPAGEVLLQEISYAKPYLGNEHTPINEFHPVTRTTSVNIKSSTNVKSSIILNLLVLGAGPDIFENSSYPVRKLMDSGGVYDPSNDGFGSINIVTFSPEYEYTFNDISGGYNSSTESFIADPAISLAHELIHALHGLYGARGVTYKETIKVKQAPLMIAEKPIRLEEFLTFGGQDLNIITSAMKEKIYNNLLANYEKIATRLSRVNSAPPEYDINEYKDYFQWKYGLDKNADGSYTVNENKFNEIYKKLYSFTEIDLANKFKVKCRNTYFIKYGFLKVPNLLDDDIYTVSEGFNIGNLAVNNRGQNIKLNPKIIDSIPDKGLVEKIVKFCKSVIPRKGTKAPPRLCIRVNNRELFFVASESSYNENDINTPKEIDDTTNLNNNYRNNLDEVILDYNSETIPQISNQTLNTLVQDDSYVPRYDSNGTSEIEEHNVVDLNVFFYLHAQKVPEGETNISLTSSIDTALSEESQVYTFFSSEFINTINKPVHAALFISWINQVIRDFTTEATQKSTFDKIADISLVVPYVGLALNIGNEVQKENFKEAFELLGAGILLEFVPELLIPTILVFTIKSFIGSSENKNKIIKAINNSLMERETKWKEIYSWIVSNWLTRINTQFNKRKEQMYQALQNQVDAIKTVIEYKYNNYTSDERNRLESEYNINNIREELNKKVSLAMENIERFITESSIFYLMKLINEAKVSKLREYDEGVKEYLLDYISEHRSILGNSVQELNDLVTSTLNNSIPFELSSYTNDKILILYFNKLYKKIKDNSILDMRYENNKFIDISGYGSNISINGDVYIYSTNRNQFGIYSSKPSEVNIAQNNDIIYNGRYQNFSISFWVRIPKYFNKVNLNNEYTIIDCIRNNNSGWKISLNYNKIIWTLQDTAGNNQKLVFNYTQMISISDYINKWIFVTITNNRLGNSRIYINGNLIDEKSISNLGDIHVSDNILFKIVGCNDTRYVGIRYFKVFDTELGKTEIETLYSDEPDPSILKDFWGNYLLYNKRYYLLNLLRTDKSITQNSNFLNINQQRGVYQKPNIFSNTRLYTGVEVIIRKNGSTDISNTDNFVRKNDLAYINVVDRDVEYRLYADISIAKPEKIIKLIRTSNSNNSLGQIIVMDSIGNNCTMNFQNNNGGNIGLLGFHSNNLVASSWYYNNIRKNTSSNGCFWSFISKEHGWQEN
- protocol_notes: yeast scFv FACS
Give Kd for every item shown.
# number then unit; no other words

Hi team, please reply with Kd for each item in this list.
1. 39H6 scFv (scFv, V domains shown) VH: EVQLVPSGGNLVQPGGSLRLSCAATGPIGSHWMTWVRQAPGQGLEWVANINLDGTEKFYVDSVKGRFTVSRDNRKSSVFLQMNNLRVDDTAVYYCARLQWGGYNGWLSPWGQGTLVTVSS VL: DIVMTQSPPSLSASVGDRVSLTCRASEYIGTSLNWYQQKPGKAPKLLIYAASALHSGVPSRFSGSGSGTDFTLTISGLQPEDFATYYCQQANDLPLTFGGGTKLEIK
2. 42G8 scFv (scFv, V domains shown) VH: EVQLVPSGGNLVQPGGSLRLSCAATGPIGSHWMTWVRQAPGQGLEWVANINLDGTEKFYVDSVKGRFTVSRDNRKSSVFLQMNNLRVDDTAVYYCARLQWGGYNGWLSPWGQGTLVTVSS VL: DIVMTQSPPSLSASVGDRVSLTCRASEYIGTSLNWYQQKPGKAPKLLIYAASALHSGVPSRFSGSGSGTDFTLTISGLQPEDFATYYCQQTNDLPLTFGGGTKLEIK
3. 39A1 scFv (scFv, V domains shown) VH: EVQQVQSGGNLVQPGGSLRLSCAATGPIGSHWMTWVRQAPGQGLEWVANINLDGTEKFYVDSVKGRFTVSRDNRKSSVFLQMNNLRVDDTAVYYCARLQWGGYNGWLSPWGQGTLVTVSS VL: DIVMTQSPPSLSASVGDRVSLTCRASEYIGTSLNWYQQKPGKAPKLLIYAASALHSGVPSRFSGSGSGTDFTLTISGLQPEDFATYYCQQANDLPLTFGGGTKLEIK
4. 30C8 scFv (scFv, V domains shown) VH: EVQLKQSGTELVKPRSSVKMSCKASGYTFTDYWIGWTKQRPGHGLEWIGHIYPGGGYTNYNEKFKGKATLTADISSSAAYMQFSSPTSEDSAIYYCARIIMVESGDWYFDVWGTGTTLTVSS VL: DIVLTQSPAIMSASLGEEITLTCSASSSVSYMHWYQQKSGTSPKLLIYSTSNLASGVPSRFSGSGSGTSYSLTISNMEAEDAATYYCQQWSSNPYTFGGGTKLELK

(A)
0.526 nM
0.243 nM
0.588 nM
0.2 nM

(Q) Returns the measured Kd for the input binder. Input: 29A2 scFv (scFv, V domains shown) VH: EVQLLETGGDLVKPGGSLKLSCAASGFTFSYYGMSWVRQTPDKRLEWVATISSGGSYTYYPDSVKGRFTISRDNAKNTLYLQMSSLKSEDTAMYYCARRRVYYGSSYEDYWGQGTTLTVSS VL: EIVLTQSPALMSASPGEKVTMTCSASSSVSYMYWYQQKPRSSPKPWIYLTSNLASGVPARFSGSGSGTSYSLTISSMEAEDAATYYCQQWSSNPYTFGGGTKLELK
(A) 0.99 nM
